- Assay Target: rPro-hCD-FM2 ADAMTS-7 (SEQ ID NO: 2) (Homo sapiens, UniProt Q9UKP4, A119V/A123T/A127T/A171V/A193G/A200T/A28V/A36P/A42G/A66V/A78S/A97T/D77A/DEL186-188/DEL228-233/E133D/E190K/E213K/E83Q/G114S/G115N/G117S/G196D/G27H/H100Y/H124S/H234Q/K153R/L143F/L192S/L20I/P189H/P201S/P29L/P33S/P79S/Q235K/Q99P/R118N/R122Q/R174Q/R195Q/R215Q/R218H/R35L/R75A/R76Q/R87Q/R92L/S170E/S199R/S202G/S214H/T110I/T125V/V182M/V208G/V74A/W225K/Y209S)
- Construct: rat ADAMTS-7 signal peptide + prodomain (rat 1-217, Q216K), fusion partner (N); 2xStrep tag (C); 6xHis tag (C); made in house; host or cells: Expi293 cells
- Sequence (Q9UKP4 with tags, fused parts or gaps with the stated changes): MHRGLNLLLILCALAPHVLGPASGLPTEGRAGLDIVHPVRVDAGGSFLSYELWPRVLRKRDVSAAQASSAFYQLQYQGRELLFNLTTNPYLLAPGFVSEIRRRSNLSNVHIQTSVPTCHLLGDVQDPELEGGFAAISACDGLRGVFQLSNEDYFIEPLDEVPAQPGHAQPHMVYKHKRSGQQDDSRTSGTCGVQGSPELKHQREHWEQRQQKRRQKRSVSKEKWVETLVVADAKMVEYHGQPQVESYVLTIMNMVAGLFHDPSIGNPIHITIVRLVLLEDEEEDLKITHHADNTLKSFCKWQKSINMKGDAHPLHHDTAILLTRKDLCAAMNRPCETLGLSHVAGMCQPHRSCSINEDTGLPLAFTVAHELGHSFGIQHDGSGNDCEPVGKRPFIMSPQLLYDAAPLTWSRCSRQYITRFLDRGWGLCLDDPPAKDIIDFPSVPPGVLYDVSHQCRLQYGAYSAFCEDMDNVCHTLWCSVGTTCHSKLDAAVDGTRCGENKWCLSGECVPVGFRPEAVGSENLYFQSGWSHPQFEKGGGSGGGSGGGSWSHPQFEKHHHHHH
- Protocol Notes: FRET peptide substrate cleavage by rPro-hCD-FM2 (SEQ ID NO: 2)
- Type: biochemical
- Particulars: approx. 100 nM enzyme, 10 μM peptide substrate
donor fluorophore = not defined here; K(quencher) = not defined here
Outcome Measure: kcat, Enzyme SEQ ID NO: 2: rPro-hCD-FM2 (s⁻¹)

- (Donor) GMQQSVRTGLPS (K-Quencher) ({donor fluorophore}-GMQQSVRTGLPS-{K(quencher)}; reading uncertain; also: donor fluorophore and quencher not given here, printed as (Donor) GMQQSVRTGLPS (K-Quencher)) [COMP1, FRET candidate peptide, COMP amino acids 73-84]: 1.27e-05
- (HiLyteFluor-488)-DELSSMVLELRGLRT-K(QXL520)-NH2 ({HiLyteFluor‑488}-DELSSMVLELRGLRTK(QXL520)-NH2) [TSP1-1, FRET peptide substrate for ADAMTS-7/12, TSP1 amino acids 275-289]: 0.0004

###

- Assay Target: rADAMTS7 (1-575) (Rattus norvegicus)
- Construct: Flag (C); made in house; host or cells: Expi293 cells
- Sequence (Q1EHB3 with tags, fused parts or gaps): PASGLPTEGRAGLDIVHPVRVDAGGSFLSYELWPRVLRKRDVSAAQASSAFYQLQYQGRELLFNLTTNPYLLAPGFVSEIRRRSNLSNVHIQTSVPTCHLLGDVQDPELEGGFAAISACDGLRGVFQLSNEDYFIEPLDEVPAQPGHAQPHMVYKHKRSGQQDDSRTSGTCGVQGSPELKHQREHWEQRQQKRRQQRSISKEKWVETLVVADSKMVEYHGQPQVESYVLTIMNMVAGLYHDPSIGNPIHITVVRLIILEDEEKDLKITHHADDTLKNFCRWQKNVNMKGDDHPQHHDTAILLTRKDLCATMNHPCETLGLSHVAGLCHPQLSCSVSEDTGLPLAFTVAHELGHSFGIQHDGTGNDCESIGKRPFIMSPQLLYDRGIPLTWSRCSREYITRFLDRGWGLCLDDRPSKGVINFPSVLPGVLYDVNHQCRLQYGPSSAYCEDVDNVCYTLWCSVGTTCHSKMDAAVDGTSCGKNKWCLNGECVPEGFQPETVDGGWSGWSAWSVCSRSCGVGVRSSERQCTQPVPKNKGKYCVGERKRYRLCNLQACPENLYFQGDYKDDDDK
- Protocol Notes: FRET peptide substrate cleavage by rADAMTS7 (1-575) (SEQ ID NO: 3)
- Format: biochemical
- Particulars: approx. 100 nM enzyme, 10 μM peptide substrate
*: point of attachment. K(Quencher) = not defined here; Donor = not defined here; Acm = CC(=O)NC*
Cut-off 0.001 min⁻¹ on kcat, Enzyme SEQ ID NO: 3: rADAMTS7 (1-575): below means Fulfilled, at or above means Not fulfilled.

• (HiLyteFluor-488)-EENKELANELRRPPL-K (QXL520)-NH2 ({HiLyteFluor‑488}-EENKELANELRRPPLK(QXL520)-NH2) [TSP1-4, FRET candidate peptide, TSP1 amino acids 303-317] = Not fulfilled
• (HiLyteFluor-488)-KVTEENKELANELRR-K (QXL520)-NH2 ({HiLyteFluor‑488}-KVTEENKELANELRRK(QXL520)-NH2) [TSP1-3, FRET candidate peptide, TSP1 amino acids 300-314] = Not fulfilled
• (HiLyteFluor-488)-DELSSMVLELRGLRT-K(QXL520)-NH2 ({HiLyteFluor‑488}-DELSSMVLELRGLRTK(QXL520)-NH2) [TSP1-1, FRET peptide substrate for ADAMTS-7/12, TSP1 amino acids 275-289] = Not fulfilled
• (Donor) SPGFRCEACPPGYS (K-Quencher) (Donor-SPGFRC(Acm)EAC(Acm)PPGYS-{K(Quencher)}; reading uncertain; also: printed as (Donor) SPGFRCEACPPGYS (K-Quencher)) [COMP2, FRET candidate peptide, COMP amino acids 146-159, Acm modified cysteines] = Fulfilled
• (HiLyteFluor-488)-SSMVLELRGLRTIVT-K(QXL520)-NH2 ({HiLyteFluor‑488}-SSMVLELRGLRTIVTK(QXL520)-NH2) [TSP1-2, FRET peptide substrate, TSP1 amino acids 278-292] = Not fulfilled

Hello, the source for this data is patent US20220412975A1, in case you need it.
